# Organism: Homo sapiens
# Experiment Notes: Binding affinity to human telomeric DNA sequence assessed as stabilization of G-quadruplex at 10 uM by thermal denaturation
Grouping key: ΔTm. Bins: low class = under 4 °C, middle class = from 4 °C up to 10 °C, high class = 10 °C and over

>  <Entry Smiles>
N[C@@H](Cc1ccccc1)C(=O)NCC(=O)Nc1ccc2c(c1)C(=O)c1ccc(NC(=O)CNC(=O)[C@@H](N)Cc3ccccc3)cc1C2=O

>  <Answer Label>
low class

$$$$
>  <Entry Smiles>
NCCCC[C@H](N)C(=O)NCC(=O)Nc1ccc2c(c1)C(=O)c1ccc(NC(=O)CNC(=O)[C@@H](N)CCCCN)cc1C2=O

>  <Answer Label>
high class

$$$$
>  <Entry Smiles>
NCCCC[C@H](N)C(=O)NCCC(=O)Nc1ccc2c(c1)C(=O)c1cc(NC(=O)CCNC(=O)[C@@H](N)CCCCN)ccc1C2=O

>  <Answer Label>
high class

$$$$
>  <Entry Smiles>
NCC(=O)NCCNC(=O)c1ccc2c(c1)C(=O)c1cc(C(=O)NCCNC(=O)CN)ccc1C2=O

>  <Answer Label>
low class

$$$$
>  <Entry Smiles>
N=C(N)NCCC[C@H](N)C(=O)NCCC(=O)Nc1ccc2c(c1)C(=O)c1cc(NC(=O)CCNC(=O)[C@@H](N)CCCNC(=N)N)ccc1C2=O

>  <Answer Label>
high class

$$$$
>  <Entry Smiles>
CC(C)[C@H](N)C(=O)NCC(=O)Nc1ccc2c(c1)C(=O)c1ccc(NC(=O)CNC(=O)[C@@H](N)C(C)C)cc1C2=O

>  <Answer Label>
middle class

$$$$
>  <Entry Smiles>
C[C@H](N)C(=O)NCCC(=O)Nc1ccc2c(c1)C(=O)c1ccc(NC(=O)CCNC(=O)[C@H](C)N)cc1C2=O

>  <Answer Label>
middle class

$$$$
>  <Entry Smiles>
CC[C@H](C)[C@H](N)C(=O)NCC(=O)Nc1ccc2c(c1)C(=O)c1ccc(NC(=O)CNC(=O)[C@@H](N)[C@@H](C)CC)cc1C2=O

>  <Answer Label>
middle class

$$$$
>  <Entry Smiles>
N[C@@H](Cc1ccccc1)C(=O)NCCC(=O)Nc1ccc2c(c1)C(=O)c1cc(NC(=O)CCNC(=O)[C@@H](N)Cc3ccccc3)ccc1C2=O

>  <Answer Label>
middle class

$$$$
>  <Entry Smiles>
NCCC(=O)Nc1ccc2c(c1)C(=O)c1cc(NC(=O)CCN)ccc1C2=O

>  <Answer Label>
high class

$$$$
>  <Entry Smiles>
N[C@@H](Cc1ccccc1)C(=O)NCCNC(=O)c1ccc2c(c1)C(=O)c1ccc(C(=O)NCCNC(=O)[C@@H](N)Cc3ccccc3)cc1C2=O

>  <Answer Label>
low class

$$$$
>  <Entry Smiles>
NCCCC[C@H](N)C(=O)NCCNC(=O)c1ccc2c(c1)C(=O)c1ccc(C(=O)NCCNC(=O)[C@@H](N)CCCCN)cc1C2=O

>  <Answer Label>
high class

$$$$
>  <Entry Smiles>
NCCCC[C@H](N)C(=O)NCCNC(=O)c1ccc2c(c1)C(=O)c1cc(C(=O)NCCNC(=O)[C@@H](N)CCCCN)ccc1C2=O

>  <Answer Label>
high class

$$$$

====

# Organism: Homo sapiens
# Experiment Notes: Binding affinity to human telomeric DNA sequence assessed as stabilization of G-quadruplex at 10 uM by thermal denaturation

>  <Entry Smiles>
CC(C)C[C@H](N)C(=O)NCC(=O)Nc1ccc2c(c1)C(=O)c1ccc(NC(=O)CNC(=O)[C@@H](N)CC(C)C)cc1C2=O

>  <ΔTm (°C)>
3.8

$$$$
>  <Entry Smiles>
NCCC(=O)Nc1ccc2c(c1)C(=O)c1ccc(NC(=O)CCN)cc1C2=O

>  <ΔTm (°C)>
18.1

$$$$
>  <Entry Smiles>
C[C@H](N)C(=O)NCC(=O)Nc1ccc2c(c1)C(=O)c1ccc(NC(=O)CNC(=O)[C@H](C)N)cc1C2=O

>  <ΔTm (°C)>
9.2

$$$$
>  <Entry Smiles>
C[C@@H](O)[C@H](N)C(=O)NCCNC(=O)c1ccc2c(c1)C(=O)c1cc(C(=O)NCCNC(=O)[C@@H](N)[C@@H](C)O)ccc1C2=O

>  <ΔTm (°C)>
3.2

$$$$
>  <Entry Smiles>
C[C@H](N)C(=O)NCCNC(=O)c1ccc2c(c1)C(=O)c1ccc(C(=O)NCCNC(=O)[C@H](C)N)cc1C2=O

>  <ΔTm (°C)>
4.4

$$$$
>  <Entry Smiles>
NCCNC(=O)c1ccc2c(c1)C(=O)c1cc(C(=O)NCCN)ccc1C2=O

>  <ΔTm (°C)>
12.9

$$$$
>  <Entry Smiles>
CC[C@H](C)[C@H](N)C(=O)NCCC(=O)Nc1ccc2c(c1)C(=O)c1cc(NC(=O)CCNC(=O)[C@@H](N)[C@@H](C)CC)ccc1C2=O

>  <ΔTm (°C)>
2.8

$$$$
>  <Entry Smiles>
NCC(=O)NCCNC(=O)c1ccc2c(c1)C(=O)c1ccc(C(=O)NCCNC(=O)CN)cc1C2=O

>  <ΔTm (°C)>
2.9

$$$$
